- system tested: Type-1 angiotensin II receptor (Oryctolagus cuniculus) (UniProt P34976)
- Sequence (P34976 whole entry, looked up): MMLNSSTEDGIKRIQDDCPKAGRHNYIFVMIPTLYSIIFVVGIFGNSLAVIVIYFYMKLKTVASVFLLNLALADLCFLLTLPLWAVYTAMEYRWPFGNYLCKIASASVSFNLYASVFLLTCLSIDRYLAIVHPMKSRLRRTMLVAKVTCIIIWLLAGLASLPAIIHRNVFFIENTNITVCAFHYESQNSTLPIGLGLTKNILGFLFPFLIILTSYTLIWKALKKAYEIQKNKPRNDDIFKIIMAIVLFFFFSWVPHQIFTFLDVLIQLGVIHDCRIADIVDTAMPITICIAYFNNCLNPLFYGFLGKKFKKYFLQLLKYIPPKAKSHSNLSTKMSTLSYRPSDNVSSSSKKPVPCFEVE
- assay: Binding affinity towards Angiotensin receptor from rabbit aorta
log10 IC50 overview
Kindly note that the scale is log10 and the underlying IC50 is in nM.

For orientation, consider the following solved cases.
[
  {
    "compound": "CCCc1nc2c(C)cc(C)nc2n1Cc1ccc(-c2ccccc2-c2nn[nH]n2)cc1",
    "measure": "log10 IC50",
    "observed result": -0.52
  },
  {
    "compound": "CCCc1nc2ccc(C)nc2n1Cc1ccc(-c2ccccc2-c2nn[nH]n2)cc1",
    "measure": "log10 IC50",
    "observed result": 0.30
  },
  {
    "compound": "CCCCc1nc2c(C)cc(C)nc2n1Cc1ccc(-c2ccccc2-c2nn[nH]n2)cc1",
    "measure": "log10 IC50",
    "observed result": -0.30
  },
  {
    "compound": "CCCc1nc2c(C)ccnc2n1Cc1ccc(-c2ccccc2-c2nn[nH]n2)cc1",
    "measure": "log10 IC50",
    "observed result": 0.00
  },
  {
    "compound": "CCCc1nc2cccnc2n1Cc1ccc(-c2ccccc2-c2nn[nH]n2)cc1",
    "measure": "log10 IC50",
    "observed result": 0.90
  }
]

# input for lookup
query: # query: log10 IC50 of entry CCCCC1=NC(Cl)C(C(=O)O)N1Cc1ccc(-c2ccccc2-c2nn[nH]n2)cc1 (stereo unspecified)
result: 0.78
